Where these numbers come from: patent US8759535B2

Listing: fold induction at 5 µM of selected molecules
# System: HMOX1
# experimental details: HMOX1 Protein Assay (immunostaining of HO-1 in NHLF cells, GE InCell 1000)
# Format: cell-based
# protocol conditions: Homo sapiens, fold change above DMSO treated cells, 5 μM compound, 16 h
Respond numerically, and do not add a unit to the figure.

Below: 2 molecules and their reported fold induction at 5 µM.
Cn1c(Nc2nc3ccc(Cl)cc3s2)nc2cc(C(=O)NC3CCN(CCC(=O)O)C3)ccc21 (stereo not drawn) | 16.7
CN(C)CC1CCN(C(=O)CNC(=O)c2ccc3c(c2)nc(Nc2nc4ccc(Cl)cc4s2)n3C)CC1 | 42

Prompt: What value of measured fold induction at 5 µM is listed for CCOC(=O)C1(NC(=O)c2ccc3c(c2)nc(Nc2nc4ccc(OC(F)(F)F)cc4s2)n3C)CC1 ?
Completion: 7.3

Prompt: For Cn1c(Nc2nc3ccc(OC(F)(F)F)cc3s2)nc2cc(C(=O)NCc3ccc(O)cc3)ccc21 then?
Completion: 29.8

Prompt: Then CN(C)C(=O)CNC(=O)c1ccc2c(c1)nc(Nc1nc3ccc(OC(F)(F)F)cc3s1)n2C ?
Completion: 23.2

Prompt: Also check COC(C)(C)CNC(=O)c1ccc2c(c1)nc(Nc1nc3ccc(OC(F)(F)F)cc3s1)n2C
Completion: 18.7

Prompt: Likewise for COC(=O)c1ccc2c(c1)nc(Nc1nc3cc(F)ccc3s1)n2C ?
Completion: 17.6

Prompt: Ok, now CCNC(=O)c1ccc2c(c1)nc(Nc1nc3cc(F)c(F)cc3s1)n2C
Completion: 12.4

Prompt: Consider next the molecule Cn1c(Nc2nc3ccc(OC(F)(F)F)cc3s2)nc2cc(C(=O)N(CCO)CCO)ccc21 in the same way.
Completion: 47.4

Prompt: Now consider Cn1c(Nc2nc3ccc(OC(F)(F)F)cc3s2)nc2cc(C(=O)NCCC#N)ccc21 and answer again.
Completion: 48.8

Prompt: Repeat with CN(C)S(=O)(=O)N1CCN(C(=O)CNC(=O)c2ccc3c(c2)nc(Nc2nc4ccc(Cl)cc4s2)n3C)CC1
Completion: 22.7

Prompt: Now give it for Cn1c(Nc2nc3ccc(C(F)(F)F)cc3s2)nc2cc(C(=O)NCCO)ccc21 too.
Completion: 23.2

Prompt: Try Cn1c(Nc2nc3ccc(Cl)cc3s2)nc2cc(C(=O)NCC(=O)N3CCS(=O)(=O)CC3)ccc21 next.
Completion: 24.9

---

# System: HMOX1
# experimental details: HMOX1 Protein Assay (immunostaining of HO-1 in NHLF cells, GE InCell 1000)
# Format: cell-based
# protocol conditions: Homo sapiens, fold change above DMSO treated cells, 5 μM compound, 16 h
# Method: Cell Culture. Normal Human Fibroblast (NHLF), were obtained from Lonza. Cultures of cells were maintained in Fibroblast Growth Medium (FGM-2) medium supplemented with 2% fetal bovine serum (FBS), Fibroblast Growth Factor (hFGF-B) 0.5 mL, Insulin 0.5 mL, gentamicin/amphotericin-B 0.5 mL at 37° C. in a humidified atmosphere of 5% CO2. […] HMOX1 Protein Assay. […] Plate was washed 5× with 1×PBS and read at Hoechst Ex.360 Em. […] Results analyzed using GE InCell Analyzer software. […]
metric name: fold induction at 5 µM

// below: answered compounds
Cn1c(Nc2nc3ccc(OC(F)(F)F)cc3s2)nc2cc(C(=O)NCC(=O)N3CCC(O)CC3)ccc21 | 30.2
Cn1c(Nc2nc3ccc(OC(F)(F)F)cc3s2)nc2cc(C(=O)NCCn3cccn3)ccc21 | 29.4

Prompt: # query: fold induction at 5 µM of entry Cn1c(Nc2nc3ccc(OC(F)(F)F)cc3s2)nc2cc(C(=O)N[C@@H]3[C@@H](O)[C@H](O)[C@@H](CO)O[C@@H]3O)ccc21
Completion: 30.2
